Data provenance: ChEMBL document CHEMBL4330059

assay: Selectivity index, ratio of IC50 for human FHC cells to IC50 for human HT-29 cells; type: toxicity; conditions: FHC cells and HT-29 cells, read-out: Ratio IC50
recorded.metric: selectivity ratio
In your answer, state the number alone without any accompanying words.

molecule: CCN1CCN(CCCOc2cc3nccc(Oc4c(F)cc(NC(=O)NN5C(=O)CSC5c5c(F)cccc5F)cc4F)c3cc2OC)CC1 (configuration not stated)
recorded.metric: selectivity ratio
readout.value: 16.2

// recorded selectivity ratio for CCN(CC)CCCOc1cc2nccc(Oc3c(F)cc(NC(=O)NN4C(=O)CSC4c4c(F)cccc4F)cc3F)c2cc1OC (configuration not stated) : 5.9

----------
target: Vascular endothelial growth factor receptor 2 (Homo sapiens, UniProt P35968)
Sequence (P35968 whole entry): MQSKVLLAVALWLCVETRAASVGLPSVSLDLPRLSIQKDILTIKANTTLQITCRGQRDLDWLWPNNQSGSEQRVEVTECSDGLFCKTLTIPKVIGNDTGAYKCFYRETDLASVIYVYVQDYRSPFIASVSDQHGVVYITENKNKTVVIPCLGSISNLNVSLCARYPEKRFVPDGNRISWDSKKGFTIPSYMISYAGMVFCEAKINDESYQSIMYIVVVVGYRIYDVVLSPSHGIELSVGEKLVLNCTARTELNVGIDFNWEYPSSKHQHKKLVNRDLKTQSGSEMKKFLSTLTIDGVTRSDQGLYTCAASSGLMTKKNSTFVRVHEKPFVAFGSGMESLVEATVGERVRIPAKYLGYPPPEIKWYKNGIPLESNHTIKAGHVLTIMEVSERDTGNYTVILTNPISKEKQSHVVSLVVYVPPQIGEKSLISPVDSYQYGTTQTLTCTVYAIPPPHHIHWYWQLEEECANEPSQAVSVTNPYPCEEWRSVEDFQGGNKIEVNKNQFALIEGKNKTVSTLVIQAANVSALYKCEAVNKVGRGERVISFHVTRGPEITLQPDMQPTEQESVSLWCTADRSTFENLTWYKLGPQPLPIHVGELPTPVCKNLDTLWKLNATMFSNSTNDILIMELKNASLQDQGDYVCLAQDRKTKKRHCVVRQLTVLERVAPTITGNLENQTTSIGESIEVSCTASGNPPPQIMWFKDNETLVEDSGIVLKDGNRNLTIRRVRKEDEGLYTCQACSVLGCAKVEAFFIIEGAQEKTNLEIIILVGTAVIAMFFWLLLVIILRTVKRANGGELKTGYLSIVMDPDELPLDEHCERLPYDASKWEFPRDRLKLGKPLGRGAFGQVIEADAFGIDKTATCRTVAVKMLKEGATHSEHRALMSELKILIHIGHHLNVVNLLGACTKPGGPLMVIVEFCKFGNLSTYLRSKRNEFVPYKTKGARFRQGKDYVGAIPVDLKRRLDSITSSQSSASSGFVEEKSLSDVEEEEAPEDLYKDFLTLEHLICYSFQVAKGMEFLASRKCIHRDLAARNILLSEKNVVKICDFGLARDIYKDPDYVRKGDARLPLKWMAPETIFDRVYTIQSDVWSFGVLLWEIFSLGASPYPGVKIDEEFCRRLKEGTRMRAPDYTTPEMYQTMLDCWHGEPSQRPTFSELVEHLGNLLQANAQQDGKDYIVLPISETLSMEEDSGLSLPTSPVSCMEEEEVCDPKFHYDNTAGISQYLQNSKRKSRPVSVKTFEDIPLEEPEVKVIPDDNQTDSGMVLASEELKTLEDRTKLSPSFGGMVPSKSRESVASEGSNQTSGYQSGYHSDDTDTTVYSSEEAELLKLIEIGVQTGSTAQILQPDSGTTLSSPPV
recorded.metric: pIC50
FYI, pIC50 means -log10 of a concentration in mol per litre.

Summary line: CCN1CCN(CCCOc2cc3nccc(Oc4c(F)cc(NC(=O)NN5C(=O)CSC5c5c(F)cccc5F)cc4F)c3cc2OC)CC1 (stereo unspecified) , Vascular endothelial growth factor receptor 2 (Homo sapiens, UniProt P35968), reported pIC50 = 6.07

----------
tested on: HT-29; experiment: Antiproliferative activity against human HT-29 cells after 72 hrs by MTT assay; format: functional, cell-based; conditions: HT-29, 72 h
Threshold 500 nM: IC50 strictly smaller gives true, otherwise false.

Examples from the recorded data:
compound: COc1cc2c(Oc3ccc(NC(=O)NN4C(=O)CSC4c4c(F)cccc4F)cc3Cl)ccnc2cc1OCCCN1CCCC1 (configuration not stated)
assigned.category: true
--
compound: COc1cc2c(Oc3c(F)cc(NC(=S)NN4C(=O)CSC4c4c(F)cccc4F)cc3F)ccnc2cc1OCCCN1CCCC1 (configuration not stated)
assigned.category: true
--
compound: COc1cc2c(Oc3c(F)cc(NC(=O)NN4C(=O)CCSC4c4c(F)cccc4F)cc3F)ccnc2cc1OCCCN1C[C@H]2CCCC[C@H]2C1 (some centres not stated)
assigned.category: false
--
compound: COc1cc2c(Oc3ccc(NC(=O)NN4C(=O)CSC4c4c(F)cccc4F)cc3F)ccnc2cc1OCCCN1CCCC1 (configuration not stated)
assigned.category: true
--
compound: CCN(CC)CCCOc1cc2nccc(Oc3c(F)cc(NC(=O)NN4C(=O)CSC4c4c(F)cccc4F)cc3F)c2cc1OC (configuration not stated)
assigned.category: true
--
compound: COc1cc2c(Oc3c(F)cc(NC(=O)NN4C(=O)C(C)SC4c4c(F)cccc4F)cc3F)ccnc2cc1OCCCN1CCCC1 (configuration not stated)
assigned.category: false
--
compound: CCN1CCN(CCOc2cc3nccc(Oc4c(F)cc(NC(=O)NN5C(=O)CSC5c5c(F)cccc5F)cc4F)c3cc2OC)CC1 (configuration not stated)
assigned.category: true
--
compound: COc1cc2c(Oc3c(F)cc(NC(=O)NN4C(=O)CSC4c4c(F)cccc4F)cc3F)ccnc2cc1OCCCN1CCC(N2CCCCC2)CC1 (configuration not stated)
assigned.category: true
--
compound: COc1cc2c(Oc3c(F)cc(NC(=O)NN4C(=O)CSC4c4c(F)cccc4F)cc3F)ccnc2cc1OCCCN1C[C@H]2CCCC[C@H]2C1 (some centres not stated)
assigned.category: true
--
compound: COc1cc2c(Oc3c(F)cc(NC(=O)NN4C(=O)CCSC4c4c(F)cccc4F)cc3F)ccnc2cc1OCCCN1CCc2sccc2C1 (configuration not stated)
assigned.category: false

Dear reviewer, please state whether CCN1CCN(CCCCOc2cc3nccc(Oc4c(F)cc(NC(=O)NN5C(=O)CSC5c5c(F)cccc5F)cc4F)c3cc2OC)CC1 (configuration not stated) has IC50 strictly beneath 500 nM.
false

Dear reviewer, please state whether COc1cc2c(Oc3c(F)cc(NC(=O)NN4C(=O)CSC4c4c(F)cccc4F)cc3F)ccnc2cc1OCCCN1CCC(C)CC1 (configuration not stated) has IC50 strictly beneath 500 nM.
true
